Where these numbers come from: paper PMC11995724

Assay Details: in vitro
Assay Setup: human, hek293t cells
Listed below: viability at 48 h, 25 µM values for each entry.
Answer in %, number only, no unit symbol.

# input Entry "C=CC(=O)Nc1ccccc1CCC(N)=O" has what viability at 48 h, 25 µM?
# output 125

# input Entry CCC(C)(C)C1CCc2c(sc(NC(=O)CCl)c2C#N)C1 (stereo not shown) has what viability at 48 h, 25 µM?
# output -0.0335

# input Entry "CCCn1c(C)cc(C=C(C#N)C(=O)N2CCCC2)c1C" has what viability at 48 h, 25 µM?
# output 134

# input Entry CC(=O)Nc1ccc(C(=O)CCl)cc1 [10-O12, N-[4-(2-chloroacetyl)phenyl]acetamide] has what viability at 48 h, 25 µM?
# output 12.6

* * *

Assay Details: in vitro
Assay Setup: human, hek293t cells
Measured Attribute: viability at 48 h, 25 µM (%)
Answer in %, number only, no unit symbol.

# input Entry "CCN(c1ccc(C(=O)CCl)cc1)S(C)(=O)=O" has what viability at 48 h, 25 µM?
# output 22.5

# input Entry Cc1nn(C)c(C)c1NC(=O)C(C)Cl (stereo not shown) has what viability at 48 h, 25 µM?
# output 116

# input Entry "N#CC(=Cc1cc(F)ccc1F)C(=O)NC1CCCC1" has what viability at 48 h, 25 µM?
# output 16.8

# input Entry Cc1ccc(NC(=O)C(C)Cl)cc1 (stereo not shown) [4-J15, 2-chloro-N-(4-methylphenyl)propanamide] has what viability at 48 h, 25 µM?
# output 92.1

# input Entry "CCN(Cc1ccc(Cl)s1)C(=O)CCl" has what viability at 48 h, 25 µM?
# output 0.655

* * *

Listed below: viability at 48 h, 25 µM values for each entry.
Assay Details: in vitro
Assay Setup: human, hek293t cells
Write the numeric value and follow it with the unit.

Please review the following examples before continuing.
{"Molecule": "C=CC(=O)NC(Cc1nc(C)no1)c1ccccc1 (stereo not drawn) [1-B22]", "viability at 48 h, 25 µM": "68.5%"}
{"Molecule": "C=CC(=O)NC1CCn2cccc2C1 (stereo not drawn) [3-N11]", "viability at 48 h, 25 µM": "71.4%"}

# input Entry C=CC(=O)NCc1nc2ccccc2n1C1CC1 [2-N03] has what viability at 48 h, 25 µM?
# output 69.4%

* * *

Assay Details: in vitro
Assay Setup: human, hek293t cells
I'd appreciate it if you marked entries True when viability at 48 h, 25 µM is lower than 60% and False when it is not.

Reference set, count: 5
{"Compound": "C=CC(=O)NC(C)Cn1nc(C)cc1C (centres unmarked)", "Discrete Label": "True"}
{"Compound": "CC(Cl)C(=O)Nc1ccccc1C(=O)c1ccccc1 (centres unmarked) [6-G10, N-(2-benzoylphenyl)-2-chloropropanamide]", "Discrete Label": "False"}
{"Compound": "C=CC(=O)NCC(F)(F)c1cccnc1", "Discrete Label": "False"}
{"Compound": "O=C(CCl)Nc1c(Cl)c(Cl)cc(Cl)c1Cl", "Discrete Label": "True"}
{"Compound": "C=CC(=O)NC(c1nnc2n1CCC2)C(C)C (centres unmarked)", "Discrete Label": "True"}

# input Dear colleague, could you confirm whether viability at 48 h, 25 µM of Cc1cccc(NC(=O)C(C)Cl)c1 (centres unmarked) [5-P10, 2-chloro-N-(3-methylphenyl)propanamide] falls below 60%? Thanks.
# output False

# input Dear colleague, could you confirm whether viability at 48 h, 25 µM of C=CC(=O)N(CC)CC(=O)N1CCCC(c2nccn2C)C1 (centres unmarked) falls below 60%? Thanks.
# output False

* * *

Assay Details: in vitro
Assay Setup: human, hek293t cells
I'd appreciate it if you marked entries YES when viability at 48 h, 25 µM is lower than 70% and NO when it is not.

{"Compound": "CC(Cl)C(=O)Nc1ccc([N+](=O)[O-])cc1C#N (centres unmarked) [5-I15]", "Discrete Label": "NO"}
{"Compound": "CN(C)C(CNC(=O)CCl)c1ccccc1 (centres unmarked) [4-B21]", "Discrete Label": "NO"}
{"Compound": "C=CC(=O)NC12CC3CC(CC(C3)C1)C2 [1-E12, N-(adamantan-1-yl)prop-2-enamide]", "Discrete Label": "YES"}
{"Compound": "Cc1cc(C=C2CCN(C(=O)C(C)Cl)CC2)no1 (centres unmarked) [6-N03]", "Discrete Label": "NO"}
{"Compound": "Cc1cc(CO[C@H]2CC[C@H](NC(=O)CCl)CC2)on1 [6-K19]", "Discrete Label": "NO"}
{"Compound": "Cc1ccc(F)c(N2CCC(NC(=O)CCl)CC2)c1 [5-M14]", "Discrete Label": "NO"}
{"Compound": "NC(=O)CSc1ccccc1NC(=O)CCl [4-A15]", "Discrete Label": "YES"}
{"Compound": "O=C(CCl)Nc1nccc(Cl)n1 [6-C19]", "Discrete Label": "NO"}

# input Dear colleague, could you confirm whether viability at 48 h, 25 µM of COc1cc(CN(C(=O)CCl)C2CC2)ccc1O [7-H18] falls below 70%? Thanks.
# output YES

# input Dear colleague, could you confirm whether viability at 48 h, 25 µM of C=CC(=O)NCc1nncn1-c1ccccc1 [1-G07] falls below 70%? Thanks.
# output NO

# input Dear colleague, could you confirm whether viability at 48 h, 25 µM of C=CC(=O)Nc1nc2c(s1)-c1cc(OC)ccc1CC2 [1-J21] falls below 70%? Thanks.
# output NO

# input Dear colleague, could you confirm whether viability at 48 h, 25 µM of Cn1c(N)c(C(=O)CCl)c(=O)n(C)c1=O [10-E14] falls below 70%? Thanks.
# output NO

* * *

Assay Details: in vitro
Assay Setup: human, hek293t cells
Listed below: viability at 48 h, 25 µM values for each entry.
Write the numeric value and follow it with the unit.

Please review the following examples before continuing.
{"Compound": "CC(Cl)C(=O)Nc1ccc(F)c(F)c1 (stereo not shown)", "Measured Attribute": "viability at 48 h, 25 µM", "Result": "101%"}
{"Compound": "CC(Cl)C(=O)N1CCCC(c2cnn(C)c2)C1 (stereo not shown)", "Measured Attribute": "viability at 48 h, 25 µM", "Result": "82%"}
{"Compound": "Cc1cccc(C)c1NC(=O)CN(C)C(=O)CCl", "Measured Attribute": "viability at 48 h, 25 µM", "Result": "0.212%"}

Please look at the following compound next.
# input Entry "C=CC(=O)N(CC)CC(=O)Nc1ccc2c(c1)nc1n2CCCCC1" has what viability at 48 h, 25 µM?
# output 35.8%

* * *

Assay Details: in vitro
Assay Setup: human, hek293t cells
Measured Attribute: viability at 48 h, 25 µM (%)
Answer in %, number only, no unit symbol.

{"Compound": "Cc1cc(C(=O)CCl)c(F)cc1F [10-O03]", "Measurement Units": "%", "viability at 48 h, 25 µM": 2.01}
{"Compound": "C=CC(=O)Nc1ccccc1-c1nnnn1C [1-M05]", "Measurement Units": "%", "viability at 48 h, 25 µM": 79.7}
{"Compound": "C=CC(=O)NCCC1CCCS1(=O)=O (stereo not drawn) [3-C12]", "Measurement Units": "%", "viability at 48 h, 25 µM": 86.1}
{"Compound": "COCCNC(=O)C(C#N)=Cc1c(Cl)cccc1Cl [8-O13]", "Measurement Units": "%", "viability at 48 h, 25 µM": 55.9}
{"Compound": "C=CC(=O)NC1(c2ccccc2)CCOC1 (stereo not drawn) [3-P04, N-(3-phenyloxolan-3-yl)prop-2-enamide]", "Measurement Units": "%", "viability at 48 h, 25 µM": 89.3}

# input Entry CN(C)c1ccc(C=C(C#N)C(N)=O)cc1 [9-O04] has what viability at 48 h, 25 µM?
# output 118

# input Entry CC(Cl)C(=O)N1CCN(C(c2ccccc2)C(F)(F)F)CC1 (stereo not drawn) [6-P16] has what viability at 48 h, 25 µM?
# output 114

# input Entry O=C1CCc2cc(C(=O)CCl)c(F)cc2N1 [10-O20] has what viability at 48 h, 25 µM?
# output 11.9

# input Entry C=CC(=O)NCCC(=O)N1CCN(c2ccccc2Cl)CC1 [3-J22] has what viability at 48 h, 25 µM?
# output 88.6

# input Entry C=CC(=O)N(C)CC1(O)CCc2ccccc21 (stereo not drawn) [3-D11] has what viability at 48 h, 25 µM?
# output 58.6

# input Entry C=CC(=O)N1CCC(C(=O)Nc2cnn(COC)c2)CC1 [2-H10] has what viability at 48 h, 25 µM?
# output 79

# input Entry N#CC(C(=O)CCl)c1nncn1-c1ccccc1 (stereo not drawn) [10-L14] has what viability at 48 h, 25 µM?
# output 83.7

# input Entry C=CC(=O)Nc1sc2c(c1C(N)=O)CCCCC2 [1-F21] has what viability at 48 h, 25 µM?
# output 113

# input Entry C=CC(=O)NCC1CC(CC(=O)O)CO1 (stereo not drawn) [2-E03] has what viability at 48 h, 25 µM?
# output 182
